# TESTED SYSTEM: T1, His-tagged human IGF1R protein (ACRO Biosystems Inc., Cat #: IGR-H5229) (human, UniProt P08069 31-932)
# T1 construct: Bought protein; also called hIGF1R-His; not shown: His tag
# T1 sequence (P08069 31-932): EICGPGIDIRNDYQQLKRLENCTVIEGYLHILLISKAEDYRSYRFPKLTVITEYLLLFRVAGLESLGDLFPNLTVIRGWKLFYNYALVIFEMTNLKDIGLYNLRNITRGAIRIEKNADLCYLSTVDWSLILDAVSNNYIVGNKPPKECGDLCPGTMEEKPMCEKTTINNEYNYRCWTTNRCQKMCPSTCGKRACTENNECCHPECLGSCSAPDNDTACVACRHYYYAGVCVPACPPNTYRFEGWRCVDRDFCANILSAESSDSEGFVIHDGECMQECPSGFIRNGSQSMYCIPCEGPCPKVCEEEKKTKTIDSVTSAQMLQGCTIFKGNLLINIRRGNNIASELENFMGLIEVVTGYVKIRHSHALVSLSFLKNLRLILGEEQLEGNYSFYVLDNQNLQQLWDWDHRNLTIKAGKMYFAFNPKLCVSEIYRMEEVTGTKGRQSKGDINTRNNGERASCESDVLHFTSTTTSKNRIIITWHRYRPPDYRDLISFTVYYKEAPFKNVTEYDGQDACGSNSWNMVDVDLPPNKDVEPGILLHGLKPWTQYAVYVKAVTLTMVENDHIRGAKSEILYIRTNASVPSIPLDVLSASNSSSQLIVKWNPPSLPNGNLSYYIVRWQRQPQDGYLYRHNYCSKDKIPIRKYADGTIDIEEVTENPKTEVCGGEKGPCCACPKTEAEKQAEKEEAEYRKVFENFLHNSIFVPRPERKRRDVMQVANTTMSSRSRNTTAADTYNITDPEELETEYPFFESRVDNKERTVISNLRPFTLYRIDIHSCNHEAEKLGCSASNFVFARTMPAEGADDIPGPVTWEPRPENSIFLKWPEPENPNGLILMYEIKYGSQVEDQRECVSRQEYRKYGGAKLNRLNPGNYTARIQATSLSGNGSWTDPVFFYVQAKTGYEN
# PROTOCOL: SPR (Biacore 8K) on captured hIGF1R-His, binder injected second (Analyte 2); competitor injected first (Analyte 1): 12A4
# Procedure: Epitope binding assays were performed using Biacore™ 8K biosensor to determine whether two anti-IGF1R antibodies target the same or overlapping epitopes. […] The binding value of each antibody was obtained using Biacore Insight Evaluation (Version: 2.0.15.12933). To quantify the interference of one antibody binding to another, a binding ratio was calculated to compare each pair of antibodies. […]
Collected binding ratio (Analyte 2 / Analyte 1) values appear next to each entry.
Just the number, please.

Look over these answered cases.
Task: Dear colleague, I am looking for the recorded binding ratio (Analyte 2 / Analyte 1) of the following binder: anti-IGF1R antibody 10G1 (antibody, human IgG1, V domains shown) VH: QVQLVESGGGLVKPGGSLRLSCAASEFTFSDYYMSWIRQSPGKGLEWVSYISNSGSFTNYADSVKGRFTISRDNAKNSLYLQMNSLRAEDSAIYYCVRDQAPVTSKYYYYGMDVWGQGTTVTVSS VL: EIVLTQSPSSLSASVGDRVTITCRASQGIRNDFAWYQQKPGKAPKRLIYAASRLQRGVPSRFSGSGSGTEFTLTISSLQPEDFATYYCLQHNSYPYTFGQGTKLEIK
Result: -0.03

Task: Try this binder next: anti-IGF1R antibody 12A4 (antibody, V domains shown) VH: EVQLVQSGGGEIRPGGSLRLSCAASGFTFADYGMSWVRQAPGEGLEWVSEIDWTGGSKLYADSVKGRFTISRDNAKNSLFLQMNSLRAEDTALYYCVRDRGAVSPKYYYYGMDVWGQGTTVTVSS VL: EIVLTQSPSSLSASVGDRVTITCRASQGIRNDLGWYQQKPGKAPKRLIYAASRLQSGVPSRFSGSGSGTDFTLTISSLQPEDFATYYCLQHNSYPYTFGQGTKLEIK
Result: -0.01

Task: Try this binder next: anti-IGF1R antibody 10D1 (antibody, human IgG1, V domains shown) VH: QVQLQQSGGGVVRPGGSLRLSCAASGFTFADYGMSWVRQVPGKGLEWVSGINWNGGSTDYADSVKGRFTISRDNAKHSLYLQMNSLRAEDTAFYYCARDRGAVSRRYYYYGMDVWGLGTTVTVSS VL: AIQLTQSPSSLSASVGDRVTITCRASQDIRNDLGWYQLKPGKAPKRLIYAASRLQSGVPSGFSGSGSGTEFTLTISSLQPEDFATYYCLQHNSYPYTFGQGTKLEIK
Result: 0.02

Would you kindly look at the next entry?
Task: Dear colleague, I am looking for the recorded binding ratio (Analyte 2 / Analyte 1) of the following binder: anti-IGF1R antibody 12D1 (antibody, human IgG1, V domains shown) VH: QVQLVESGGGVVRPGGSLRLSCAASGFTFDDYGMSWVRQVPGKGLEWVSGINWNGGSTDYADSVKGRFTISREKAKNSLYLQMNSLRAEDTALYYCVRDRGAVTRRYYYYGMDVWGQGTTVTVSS VL: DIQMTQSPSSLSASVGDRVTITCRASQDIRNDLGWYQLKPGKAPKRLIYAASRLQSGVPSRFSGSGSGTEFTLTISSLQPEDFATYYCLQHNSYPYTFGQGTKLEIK
Result: 0
